test system: Wolbachia pipientis; test: Anti-Wolbachia Cell-Based Screen; type: functional; design: scale not given: in the data most compounds retested in dose-response had high values; details: 5 µM
In all, about 48,000 compounds went through this assay and about 13,000 (27%) showed an effect of 50% or more. This is one part of the list.
QUANTITY_NAME: Percent Effect (%)
// return numeric value only (unit: %, not printed)

Here are 4 molecules together with their reported answers.
Fill in: Percent Effect of Cn1ccnc1CN1CCCC1c1noc(C2CC2)n1 (stereo not drawn) is ___
3.243

Looking for the measured Percent Effect of Cc1ccc(OCC(O)CN2CCC(Cn3cc(C)cn3)CC2)cc1 (stereo not drawn) , can you help?
122.4

Entry under review: Cc1cnc(CNc2ccccc2CN(C)C(=O)c2cccs2)o1 . Reported Percent Effect?
6.302

Need Percent Effect of O=C(CC(F)(F)F)Nc1cc(F)ccc1OCC1CCCO1 (stereo not drawn) , thanks.
91.81

Further cases:
Name the recorded Percent Effect for COCCN(Cc1ccoc1)C(=O)c1cccnc1SC .
9.468
